Just for reference, patent US20240034774A1 is where these values come from.

# testedTarget: HIV-1 envelope glycoprotein gp120 of virus 92US727 (HIV-1)
# assayProcedure: cell-based or functional assay
measuredParameter: neutralization IC50

binder | endpointResult
3.1.12-1 (antibody, human IgG1, kappa, V domains shown) VH: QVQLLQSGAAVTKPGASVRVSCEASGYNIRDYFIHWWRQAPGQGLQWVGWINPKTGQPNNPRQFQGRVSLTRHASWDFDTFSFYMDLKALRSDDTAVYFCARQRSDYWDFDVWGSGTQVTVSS VL: DIQMTQSPSSLSARVGDTATITCQANGYLNWYQQRRGKAPKLLIYDGSKLERGVPARFSGRRWGQEYILTINNLQPEDVATYFCQVYEFFGPGTRLDLKR | > 41 µg/mL
2.3.18-1 (antibody, human IgG1, kappa, V domains shown) VH: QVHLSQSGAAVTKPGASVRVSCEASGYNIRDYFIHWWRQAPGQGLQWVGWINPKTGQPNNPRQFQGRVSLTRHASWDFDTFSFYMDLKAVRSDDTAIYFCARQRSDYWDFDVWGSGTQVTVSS VL: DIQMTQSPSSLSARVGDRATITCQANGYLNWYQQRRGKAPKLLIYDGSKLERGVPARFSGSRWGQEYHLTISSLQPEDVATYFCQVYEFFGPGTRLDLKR | > 23 µg/mL
2.3.7-1 (antibody, human IgG1, kappa, V domains shown) VH: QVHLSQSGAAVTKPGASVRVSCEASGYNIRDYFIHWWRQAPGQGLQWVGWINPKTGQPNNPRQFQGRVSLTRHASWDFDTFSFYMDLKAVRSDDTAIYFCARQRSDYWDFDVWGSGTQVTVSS VL: DIQMTQSPSSLSARVGDRATITCQANGYLNWYQQRRGKAPKLLIYDGSKLERGVPARFSGSRWGQEYTLTISSLQPEDVATYFCQVYEFFGPGTRLDLKR | > 50 µg/mL
2.2.7-1 (antibody, human IgG1, kappa, V domains shown) VH: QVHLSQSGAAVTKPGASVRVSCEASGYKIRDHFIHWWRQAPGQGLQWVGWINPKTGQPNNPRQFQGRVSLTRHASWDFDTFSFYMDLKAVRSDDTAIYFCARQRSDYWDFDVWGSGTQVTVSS VL: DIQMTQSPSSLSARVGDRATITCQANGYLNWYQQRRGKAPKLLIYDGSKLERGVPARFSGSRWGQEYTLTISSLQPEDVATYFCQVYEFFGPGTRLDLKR | > 50 µg/mL

Attention now shifts to the item below.
-- ask So what's the measured neutralization IC50 for this one? 3.1.7-1 (antibody, human IgG1, kappa, V domains shown) VH: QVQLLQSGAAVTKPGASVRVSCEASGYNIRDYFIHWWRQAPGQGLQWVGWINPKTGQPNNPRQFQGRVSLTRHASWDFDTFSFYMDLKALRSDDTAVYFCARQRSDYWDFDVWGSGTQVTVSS VL: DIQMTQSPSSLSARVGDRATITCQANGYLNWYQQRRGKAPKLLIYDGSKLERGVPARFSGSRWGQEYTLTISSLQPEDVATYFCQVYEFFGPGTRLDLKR
-- reply > 50 µg/mL
